Tested on: morningglory
testName: Test C preemergence
Format: in vivo, Ipomoea coccinea
experimentalContext: preemergence, 62 g ai/ha; scale 0 to 100 (0 no effect, 100 complete control), 13 to 15 days
Reported Morningglory plant response rating values are given for each entry in this list.
measure: Morningglory plant response rating

INSERT INTO assay_data (itemsmiles, measure, assayvalue) VALUES
  ('CCNC(=O)c1cc(CC)n(Cc2ccnc(OC(F)F)c2)n1', 'Morningglory plant response rating', 98),
  ('CCOc1cc(C(=O)NC(C)C)nn1Cc1ccnc(C(F)(F)F)c1', 'Morningglory plant response rating', 98),
  ('CCCNC(=O)c1cc(CCCl)n(Cc2ccnc(C(F)(F)F)c2)n1', 'Morningglory plant response rating', 100),
  ('CCCNC(=O)c1cc(CC)n(Cc2ccnc(OC(F)F)c2)n1', 'Morningglory plant response rating', 100),
  ('CCONC(=O)c1cc(OCC)n(Cc2ccnc(C(F)(F)F)c2)n1', 'Morningglory plant response rating', 100),
  ('CCc1cc(C(=O)NC2CC2)nn1Cc1ccnc(OCC(F)(F)F)c1', 'Morningglory plant response rating', 95),
  ('CCCNC(=O)c1cc(CCC)n(Cc2cc(C(F)(F)F)nn2C)n1', 'Morningglory plant response rating', 100),
  ('CCCc1cc(C(=O)NOCC)nn1Cc1ccnc(C(F)(F)F)c1', 'Morningglory plant response rating', 75),
  ('CCc1cc(C(=O)NC(C)C)nn1Cc1ccnc(C(F)(F)F)c1', 'Morningglory plant response rating', 35);

Every entry's value here was drawn from patent US20150105252A1.
